# target: P-selectin (Homo sapiens)
# Construct: P-selectin is isolated from human platelet lysates; from tissue; host or cells: human platelets (outdated platelet packs from a blood bank)
# Sequence (P16109 42-830): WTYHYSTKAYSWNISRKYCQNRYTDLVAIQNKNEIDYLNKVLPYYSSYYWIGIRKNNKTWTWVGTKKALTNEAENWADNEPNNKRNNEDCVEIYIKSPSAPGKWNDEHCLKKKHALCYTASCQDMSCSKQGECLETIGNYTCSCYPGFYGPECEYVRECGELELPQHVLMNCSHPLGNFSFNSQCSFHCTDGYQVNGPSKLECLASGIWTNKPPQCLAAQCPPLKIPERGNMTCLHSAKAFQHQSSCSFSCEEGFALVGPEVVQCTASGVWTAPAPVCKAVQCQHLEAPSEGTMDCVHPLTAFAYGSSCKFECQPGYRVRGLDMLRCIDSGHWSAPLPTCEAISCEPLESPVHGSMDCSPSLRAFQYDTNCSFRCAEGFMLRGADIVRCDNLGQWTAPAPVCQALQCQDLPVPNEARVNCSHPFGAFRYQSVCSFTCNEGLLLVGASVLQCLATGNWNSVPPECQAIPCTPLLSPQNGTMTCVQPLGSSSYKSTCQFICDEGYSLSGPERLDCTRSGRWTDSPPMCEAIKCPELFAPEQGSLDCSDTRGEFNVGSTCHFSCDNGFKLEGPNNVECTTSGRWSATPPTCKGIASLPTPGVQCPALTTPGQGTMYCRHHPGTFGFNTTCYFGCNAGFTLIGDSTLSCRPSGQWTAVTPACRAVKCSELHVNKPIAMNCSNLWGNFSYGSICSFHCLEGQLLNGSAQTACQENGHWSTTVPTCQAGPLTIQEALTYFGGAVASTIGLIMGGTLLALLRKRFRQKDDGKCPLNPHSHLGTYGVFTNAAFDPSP
# assay_method_text: Inhibition of human neutrophil adhesion to purified P-selectin immobilized on plastic wells
# Type: cell-based
# measurement_conditions: inhibiting the binding of human neutrophils to P-selectin
Where a SMILES comes first, the peptide text is derived from it. Bridges are numbered along the chain shown (N, C = ends). [ ]: non-standard residue; d: D form.
# Lookup of reported pIC50 keyed by entry
To interpret pIC50, take it as minus log10 of a concentration measured in moles per litre.

Recorded pIC50, per entry:
molecule	value_type	quantitative_result
CC(C)[C@@H](NC(=O)[C@@H](Cc1c[nH]c2ccccc12)NC(=O)[C@H](NC(=O)[C@@H](CCC(N)=O)NC(=O)[C@H]1CSSC[C@@H](NC(=O)[C@@H](CCCCN)NC(=O)[C@H](N)CCCNC(=N)N)C(=O)NCC(=O)N[C@@H](Cc2ccccc2)C(=O)N1)[C@H](C)O)C(N)=O [(46)] (H-[dR][dK][dC]GF[dC][dQ][dT][dW][dV]-NH2; disulfide 3-6)	pIC50	4.32
CC(C)[C@@H](NC(=O)[C@@H](Cc1c[nH]c2ccccc12)NC(=O)[C@H](NC(=O)[C@@H](Cc1c[nH]c2ccccc12)NC(=O)[C@H]1CSSC[C@@H](NC(=O)[C@@H](CCCCN)NC(=O)[C@H](N)CCCNC(=N)N)C(=O)NCC(=O)N[C@H](Cc2ccccc2)C(=O)N1)[C@H](C)O)C(N)=O [(13)] (H-[dR][dK][dC]G[dF][dC][dW][dT][dW][dV]-NH2; disulfide 3-6)	pIC50	4.30
CC(C)[C@H](NC(=O)[C@H](Cc1c[nH]c2ccccc12)NC(=O)[C@@H](NC(=O)[C@H](Cc1c[nH]c2ccccc12)NC(=O)[C@@H]1CSSC[C@H](N)C(=O)N[C@@H](CCCNC(=N)N)C(=O)NCC(=O)NCC(=O)N1)[C@@H](C)O)C(N)=O [(6)] (H-CRGGCWTWV-NH2; disulfide 1-5)	pIC50	4.27

Please look at the following molecule next.
*Q* Please give the documented pIC50 of CC(C)[C@@H](NC(=O)[C@H](Cc1c[nH]c2ccccc12)NC(=O)[C@H](NC(=O)[C@@H](Cc1c[nH]c2ccccc12)NC(=O)[C@H]1CSSC[C@@H](NC(=O)[C@@H](CCCCN)NC(=O)[C@H](N)CCCNC(=N)N)C(=O)NCC(=O)N[C@@H](Cc2ccccc2)C(=O)N1)[C@H](C)O)C(N)=O [(96)] (H-[dR][dK][dC]GF[dC][dW][dT]W[dV]-NH2; disulfide 3-6)
*A* 4.57
